Sourced from ChEMBL document CHEMBL3352721

Test: Clearance in CD1 mouse at 2 mg/kg, iv
Type: ADME, organism-based
Design: dose 2 mg/kg, route intravenous
Settings: in vivo
measured-endpoint: clearance (mL/min/kg)

[a] CN1CCN(CCCS(=O)(=O)c2ccc3nc(NC(=O)NC(=O)c4cc(N5CCOCC5)ccc4Cl)sc3c2)CC1
[b] CN1CCC(S(=O)(=O)c2ccc3nc(NC(=O)NC(=O)c4cc(N5CCOCC5)ccc4Cl)sc3c2)CC1
[c] CN1CCN(CCCS(=O)(=O)c2ccc3nc(NC(=O)NC(=O)c4ccccc4Cl)sc3c2)CC1
Q: Using the list above, order everything by rising clearance. Could you list the labels in the order requested?
A: b, a, c
